Entries and their measured IC50 follow.
- System: MCF7
- Protocol Details: Growth inhibition of human MCF7 cells after 72 hrs by MTT assay
- Type: functional, cell-based
- Condition Notes: MCF7, 72 h
Value Kind: IC50

> print(dat)
                      smiles.representation  value.kind  endpoint.value
1   Brc1ccccc1-c1nc2c3cccnc3c3ncccc3c2[nH]1        IC50         27.3 µM
2   c1ccc(-c2nc3c4cccnc4c4ncccc4c3[nH]2)cc1        IC50         72.6 µM
3  O=S(=O)(O)c1ccc(-c2nc3c4cccnc4c4ncccc4c3[nH]2)cc1        IC50          184 µM
4  O=S(=O)(O)c1ccccc1-c1nc2c3cccnc3c3ncccc3c2[nH]1        IC50          162 µM
5  Brc1ccc(-c2nc3c4cccnc4c4ncccc4c3[nH]2)cc1        IC50         22.9 µM

----------
- Protocol Details: Drug uptake in nucleus of human MCF7 cells at 10 uM after 24 hrs by fluorescence microscopy
- Type: ADME, cell-based
- Condition Notes: mcf7, 24 h
Value Kind: Drug uptake

> print(dat)
                      smiles.representation   value.kind  endpoint.value
1   c1ccc(-c2nc3c4cccnc4c4ncccc4c3[nH]2)cc1  Drug uptake      Not Active
2  O=S(=O)(O)c1ccccc1-c1nc2c3cccnc3c3ncccc3c2[nH]1  Drug uptake      Not Active
3  Brc1ccc(-c2nc3c4cccnc4c4ncccc4c3[nH]2)cc1  Drug uptake          Active
4   Brc1ccccc1-c1nc2c3cccnc3c3ncccc3c2[nH]1  Drug uptake          Active
5  O=S(=O)(O)c1ccc(-c2nc3c4cccnc4c4ncccc4c3[nH]2)cc1  Drug uptake      Not Active

----------
- Protocol Details: Drug uptake in cytoplasm of human MCF7 cells at 10 uM after 24 hrs by fluorescence microscopy
- Type: ADME, cell-based
- Condition Notes: mcf7, 24 h
Value Kind: Drug uptake

> print(dat)
                      smiles.representation  endpoint.value
1   Brc1ccccc1-c1nc2c3cccnc3c3ncccc3c2[nH]1          Active
2   c1ccc(-c2nc3c4cccnc4c4ncccc4c3[nH]2)cc1      Not Active
3  Brc1ccc(-c2nc3c4cccnc4c4ncccc4c3[nH]2)cc1          Active
4  O=S(=O)(O)c1ccc(-c2nc3c4cccnc4c4ncccc4c3[nH]2)cc1      Not Active
5  O=S(=O)(O)c1ccccc1-c1nc2c3cccnc3c3ncccc3c2[nH]1      Not Active
